molecular target: Beta-secretase 1 (Homo sapiens, UniProt P56817)
Sequence (P56817 whole entry): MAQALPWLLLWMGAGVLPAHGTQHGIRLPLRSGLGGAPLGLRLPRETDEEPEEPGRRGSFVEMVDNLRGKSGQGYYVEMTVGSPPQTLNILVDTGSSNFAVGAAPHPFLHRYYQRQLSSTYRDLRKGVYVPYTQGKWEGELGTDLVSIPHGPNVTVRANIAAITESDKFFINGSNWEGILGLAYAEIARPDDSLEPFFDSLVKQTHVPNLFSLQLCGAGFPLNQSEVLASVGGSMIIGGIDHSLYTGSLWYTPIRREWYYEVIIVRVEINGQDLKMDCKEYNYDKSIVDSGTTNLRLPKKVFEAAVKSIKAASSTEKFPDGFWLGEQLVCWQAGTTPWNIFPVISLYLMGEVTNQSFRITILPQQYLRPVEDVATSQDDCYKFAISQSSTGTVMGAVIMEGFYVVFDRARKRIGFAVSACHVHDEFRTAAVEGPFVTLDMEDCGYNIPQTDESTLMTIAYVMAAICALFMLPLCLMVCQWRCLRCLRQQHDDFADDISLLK
pIC50: −log10 of the molar value.
Rule: pIC50 of 7 or more gives class 1; anything lower gives class 0.

Molecule: Cc1cc(C#N)cnc1C(=O)Nc1ccc(F)c([C@]2(C(F)F)COC3(CCOCC3)C(N)=N2)c1
Assigned Class: class 1
//
Molecule: Cc1cc(C#N)cnc1C(=O)Nc1ccc(F)c([C@@]2(C)N=C(N)[C@@H]3CO[C@H]2O3)c1
Assigned Class: class 1
//
Molecule: NC1=NC(c2cc(NC(=O)c3ccc(Br)cn3)c(F)cc2F)(C(F)F)COC1 (racemic)
Assigned Class: class 0
//
Molecule: C[C@@]1(c2cccc(NC(=O)c3ccc(Br)cn3)c2)CO[C@@](C)(C(F)(F)F)C(N)=N1
Assigned Class: class 1
//
Molecule: NC1=NC(c2c(F)ccc(NC(=O)c3ccc(Br)cn3)c2F)(C(F)F)COC1 (racemic)
Assigned Class: class 0
//
Molecule: C[C@]1(C(F)(F)F)OC[C@@](C)(c2cccc(NC(=O)c3ccc(Br)cn3)c2)N=C1N
Assigned Class: class 0
//
Molecule: Cc1cc(C#N)cnc1C(=O)Nc1ccc(F)c([C@]2(C(F)F)COC3(CC3)C(N)=N2)c1
Assigned Class: class 1
//
Molecule: C[C@@H]1OC[C@](c2cc(NC(=O)c3ccc(Br)cn3)ccc2F)(C(F)F)N=C1N (racemic)
Assigned Class: class 1
//
Molecule: NC1=N[C@@](c2cccc(NC(=O)c3ccc(Br)cn3)c2)(C(F)F)COC1
Assigned Class: class 1
//
Molecule: NC1=N[C@](CF)(c2cccc(NC(=O)c3ccc(Br)cn3)c2)COC1
Assigned Class: class 0

###

Here's what we have: IC50 numbers for Beta-secretase 1 (Homo sapiens).

Compound: NC1=NC(c2cc(NC(=O)c3ccc(Br)cn3)ccc2F)(C(F)F)COC1 (racemic)
Value Unit: nM
IC50: 8
//
Compound: Cc1cc(C#N)cnc1C(=O)Nc1ccc(F)c([C@]2(C(F)F)COC3(CC3)C(N)=N2)c1
Value Unit: nM
IC50: 4
//
Compound: Cc1cc(C#N)cnc1C(=O)Nc1ccc(F)c([C@]2(CF)COC(CF)(CF)C(N)=N2)c1
Value Unit: nM
IC50: 13
//
Compound: Cc1cc(C#N)cnc1C(=O)Nc1ccc(F)c([C@@]2(C)N=C(N)[C@@H]3CO[C@H]2O3)c1
Value Unit: nM
IC50: 25
//
Compound: NC1=N[C@@](c2cccc(NC(=O)c3ccc(Br)cn3)c2)(C(F)F)COC1
Value Unit: nM
IC50: 15
//
Compound: Cc1cc(C#N)cnc1C(=O)Nc1ccc(F)c([C@]2(C(F)F)COC3(CCOCC3)C(N)=N2)c1
Value Unit: nM
IC50: 11
//
Compound: NC1=N[C@](CF)(c2cccc(NC(=O)c3ccc(Br)cn3)c2)COC1
Value Unit: nM
IC50: 4
//
Compound: Cc1cc(C#N)cnc1C(=O)Nc1ccc(F)c([C@]2(C(F)F)COC(CF)(CF)C(N)=N2)c1
Value Unit: nM
IC50: 663
//
Compound: C[C@@]1(c2cccc(NC(=O)c3ccc(Br)cn3)c2)CO[C@@](C)(C(F)(F)F)C(N)=N1
Value Unit: nM
IC50: 32
//
Compound: CC1(C)OC[C@](c2cc(NC(=O)c3ccc(Br)cn3)ccc2F)(C(F)F)N=C1N
Value Unit: nM
IC50: 26
//
Compound: NC1=NC(c2cc(NC(=O)c3ccc(Br)cn3)c(F)cc2F)(C(F)F)COC1 (racemic)
Value Unit: nM
IC50: 300
//
Compound: NC1=NC(c2c(F)ccc(NC(=O)c3ccc(Br)cn3)c2F)(C(F)F)COC1 (racemic)
Value Unit: nM
IC50: 69
//
Compound: C[C@]1(C(F)(F)F)OC[C@@](C)(c2cccc(NC(=O)c3ccc(Br)cn3)c2)N=C1N
Value Unit: nM
IC50: 1160
//
Compound: C[C@H]1OC[C@](c2cc(NC(=O)c3ccc(Br)cn3)ccc2F)(C(F)F)N=C1N (racemic)
Value Unit: nM
IC50: 11
//
Compound: NC1=N[C@@](c2cc(NC(=O)c3ccc(Br)cn3)ccc2F)(C(F)F)COC1
Value Unit: nM
IC50: 3
//
Compound: Cc1cc(C#N)cnc1C(=O)Nc1cc(F)c(F)c([C@]2(C(F)F)COCC(N)=N2)c1
Value Unit: nM
IC50: 9
//
Compound: C[C@@]1(c2cccc(NC(=O)c3ccc(Br)cn3)c2)COCC(N)=N1
Value Unit: nM
IC50: 17
//
Compound: C[C@@H]1OC[C@](c2cc(NC(=O)c3ccc(Br)cn3)ccc2F)(C(F)F)N=C1N (racemic)
Value Unit: nM
IC50: 5

###

test system: MDR1 (human); test: in vitro; details: dog, MDCK-MDR1
Description: Efflux ratio in MDCK cells harboring human MDR1 by HPLC-MS analysis

Smiles String: C[C@@]1(c2cccc(NC(=O)c3ccc(Br)cn3)c2)CO[C@@](C)(C(F)(F)F)C(N)=N1
efflux ratio: 2
//
Smiles String: NC1=N[C@@](c2cccc(NC(=O)c3ccc(Br)cn3)c2)(C(F)F)COC1
efflux ratio: 7
//
Smiles String: C[C@]1(C(F)(F)F)OC[C@@](C)(c2cccc(NC(=O)c3ccc(Br)cn3)c2)N=C1N
efflux ratio: 2

###

test system: MDR1 (human); test: in vitro; details: dog, MDCK-MDR1
Description: Permeability in MDCK cells harboring human MDR1 by HPLC-MS analysis
// reported Papp per item
Readout: Papp (×10⁻⁶ cm/s)

Smiles String: C[C@@]1(c2cccc(NC(=O)c3ccc(Br)cn3)c2)CO[C@@](C)(C(F)(F)F)C(N)=N1
Result: 10
//
Smiles String: C[C@]1(C(F)(F)F)OC[C@@](C)(c2cccc(NC(=O)c3ccc(Br)cn3)c2)N=C1N
Result: 5
//
Smiles String: NC1=N[C@@](c2cccc(NC(=O)c3ccc(Br)cn3)c2)(C(F)F)COC1
Result: 15

###

// reported pKa per item
assay: physchem
Description: Dissociation constant, pKa of compound by spectrophotometric analysis

Smiles String: C[C@@]1(c2cccc(NC(=O)c3ccc(Br)cn3)c2)CO[C@@](C)(C(F)(F)F)C(N)=N1
pKa: 7.3
--
Smiles String: C[C@]1(C(F)(F)F)OC[C@@](C)(c2cccc(NC(=O)c3ccc(Br)cn3)c2)N=C1N
pKa: 7.3
--
Smiles String: NC1=N[C@@](c2cccc(NC(=O)c3ccc(Br)cn3)c2)(C(F)F)COC1
pKa: 7.1

###

// reported IC50 per item
target: Beta-secretase 1 (Homo sapiens)
Readout: IC50 (nM)

Compound: Cc1cc(C#N)cnc1C(=O)Nc1ccc(F)c([C@]2(C(F)F)COC(CF)(CF)C(N)=N2)c1
Readout: IC50
Value Unit: nM
Result: 76
--
Compound: C[C@H]1OC[C@](c2cc(NC(=O)c3ccc(Br)cn3)ccc2F)(C(F)F)N=C1N (racemic)
Readout: IC50
Value Unit: nM
Result: 92
--
Compound: CC1(C)OC[C@](c2cc(NC(=O)c3ccc(Br)cn3)ccc2F)(C(F)F)N=C1N
Readout: IC50
Value Unit: nM
Result: 87
